system: Fibroblast; experiment: Multiplex assay against human fibroblast; type: toxicity, cell-based; conditions: 24 h, 10 µM, compound concentration 10 uM, replicate 2
reported_endpoint: Population Normal (%)
Could you kindly put the unit after your number?

{"smiles_str": "COCC(=O)NC/C=C/c1ccc2ncnc(Nc3ccc(Oc4ccc(C)nc4)c(C)c3)c2c1", "assay_target": "Fibroblast", "Population Normal (%)": "88%"}
{"smiles_str": "COc1ccc(S(=O)(=O)N(CCO)c2ccccc2CN(C)C/C=C/c2ccc(Cl)cc2)cc1.O=P(O)(O)O", "assay_target": "Fibroblast", "Population Normal (%)": "55%"}
{"smiles_str": "CCOc1cc2ncc(C#N)c(Nc3ccc(OCc4ccccn4)c(Cl)c3)c2cc1NC(=O)/C=C/CN(C)C", "assay_target": "Fibroblast", "Population Normal (%)": "73%"}
{"smiles_str": "Cc1cc(C)c(S(=O)(=O)N(Cc2ccc(-c3cccc(S(C)(=O)=O)c3)cc2)Cc2ccc(C(F)(F)F)o2)c(C)c1", "assay_target": "Fibroblast", "Population Normal (%)": "89%"}
{"smiles_str": "NC(=O)c1cccc(-c2cc(Nc3ccc(OC(F)(F)F)cc3)ncn2)c1", "assay_target": "Fibroblast", "Population Normal (%)": "68%"}

Which Population Normal (%) value belongs to COC(=N)c1nc2ccc3ncnc(Nc4ccc(OC)cc4F)c3c2s1 ?
69%

Try the compound COc1ccc(-c2ccc3c(N4CCOCC4)nc(N4C[C@@H](C)O[C@@H](C)C4)nc3n2)cc1CO
29%

Try the compound COc1cc(N2CCN(C)CC2)ccc1Nc1ncc2c(n1)N(C)c1ccccc1C(=O)N2C
91%
